Hi there, I'd appreciate the recorded AC50 for every entry that follows.
Tested on: Plasmodium falciparum Dd2 asexual blood stage parasites
Assay: microbe, parasite or virus in culture
Set-up: species or system Plasmodium falciparum Dd2 in human erythrocytes; single determination (one 11-point concentration-response curve)
Details: Plasmodium falciparum, DD2, Erythrocyte, 72 h; read-out: AC50
Write down the numeric answer in µM and omit the unit.

Lab request: please report AC50 under test system Plasmodium falciparum Dd2 asexual blood stage parasites for CCOC(=O)c1sc2nc3c(SCCC#N)cc(C(=O)c4cc(F)ccc4O)cn3c(=O)c2c1C
1.68

Lab request: please report AC50 under test system Plasmodium falciparum Dd2 asexual blood stage parasites for CC(C)CNC(=O)c1nc(-c2ccc(Cl)cc2)c2cnccn12
8.63

Lab request: please report AC50 under test system Plasmodium falciparum Dd2 asexual blood stage parasites for C=C(C)COc1ccc(-c2n[nH]cc2-c2ccc(OC)c(OC)c2)c(O)c1
6.68

Lab request: please report AC50 under test system Plasmodium falciparum Dd2 asexual blood stage parasites for Cn1c(/N=N/c2ccccc2)nc2ccccc21
0.841

Lab request: please report AC50 under test system Plasmodium falciparum Dd2 asexual blood stage parasites for CC1(c2ccccc2)CC(c2ccccc2)=Nc2nonc2N1 (centres unmarked)
5.31

Where do these numbers come from? They come from paper PMC7822874.
